test: Venetoclax plasma PK in combination with enzalutamide (LC–MS/MS, non-compartmental); type: in vivo, human; conditions: male, human, plasma, oral, 600 mg, venetoclax 600 mg (N = 3) with enzalutamide 160 mg/d; plasma; geometric mean (geometric SD); read-out: D1 t½ (converted)
measured.endpoint: half-life (min)
Write the value in min as a bare number.

// query # half-life lookup, item CC1(C)CCC(CN2CCN(c3ccc(C(=O)NS(=O)(=O)c4ccc(NCC5CCOCC5)c([N+](=O)[O-])c4)c(Oc4cnc5[nH]ccc5c4)c3)CC2)=C(c2ccc(Cl)cc2)C1
// result 396

====

assay: Venetoclax plasma PK in combination with enzalutamide (LC–MS/MS, non-compartmental); type: in vivo, human; conditions: male, human, plasma, oral, 400 mg, venetoclax 400 mg (N = 3) with enzalutamide 160 mg/d; plasma; geometric mean (geometric SD); read-out: D29 AUC0-24
measured.endpoint: AUC(0-t) (ng·h/mL)
Write the value in ng·h/mL as a bare number.

// query # AUC(0-t) lookup, item CC1(C)CCC(CN2CCN(c3ccc(C(=O)NS(=O)(=O)c4ccc(NCC5CCOCC5)c([N+](=O)[O-])c4)c(Oc4cnc5[nH]ccc5c4)c3)CC2)=C(c2ccc(Cl)cc2)C1 [venetoclax]
// result 10500

====

test: Venetoclax plasma PK in combination with enzalutamide (LC–MS/MS, non-compartmental); format: in vivo, human; conditions: male, human, plasma, oral, 400 mg, venetoclax 400 mg (N = 3) with enzalutamide 160 mg/d; plasma; geometric mean (geometric SD); read-out: D1 t½ (converted)
measured.endpoint: half-life

// query # half-life lookup, item CC1(C)CCC(CN2CCN(c3ccc(C(=O)NS(=O)(=O)c4ccc(NCC5CCOCC5)c([N+](=O)[O-])c4)c(Oc4cnc5[nH]ccc5c4)c3)CC2)=C(c2ccc(Cl)cc2)C1
// result 11 h

====

test: Venetoclax plasma PK in combination with enzalutamide (LC–MS/MS, non-compartmental); format: in vivo, human; conditions: male, human, plasma, oral, 600 mg, venetoclax 600 mg (N = 3) with enzalutamide 160 mg/d; plasma; geometric mean (geometric SD); read-out: D29 AUC0-24
measured.endpoint: AUC(0-t) (ng·h/mL)
Write the value in ng·h/mL as a bare number.

// query # AUC(0-t) lookup, item CC1(C)CCC(CN2CCN(c3ccc(C(=O)NS(=O)(=O)c4ccc(NCC5CCOCC5)c([N+](=O)[O-])c4)c(Oc4cnc5[nH]ccc5c4)c3)CC2)=C(c2ccc(Cl)cc2)C1 [venetoclax]
// result 9110

====

assay: Venetoclax plasma PK in combination with enzalutamide (LC–MS/MS, non-compartmental); assay type: in vivo, human; conditions: male, human, plasma, oral, 400 mg, venetoclax 400 mg (N = 3) with enzalutamide 160 mg/d; plasma; geometric mean (geometric SD); read-out: D1 Cmax
measured.endpoint: Cmax (ng/mL)
Write the value in ng/mL as a bare number.

// query # Cmax lookup, item CC1(C)CCC(CN2CCN(c3ccc(C(=O)NS(=O)(=O)c4ccc(NCC5CCOCC5)c([N+](=O)[O-])c4)c(Oc4cnc5[nH]ccc5c4)c3)CC2)=C(c2ccc(Cl)cc2)C1
// result 658

====

Assay: Venetoclax plasma PK in combination with enzalutamide (LC–MS/MS, non-compartmental)
Type: in vivo, human
Conditions: male, human, plasma, oral, 600 mg, venetoclax 600 mg (N = 3) with enzalutamide 160 mg/d; plasma; geometric mean (geometric SD); read-out: D1 AUC0-last
Description: A volume of 50 μL of the standard, QC, or sample plasma was pipetted into a microfuge tube and 10 μL of internal standard (IS; 500 ng/mL ^2H7-venetoclax) was added to each. Next, 200 μL of acetonitrile was added followed by vortexing for 30 s. Samples were centrifuged at 17,200 × g at room temperature for 10 min. Supernatants were transferred to autosampler vials, followed by injection of 5 μL into the LC–MS/MS system. […]
measured.endpoint: AUC(0-t) (ng·h/mL)
Write the value in ng·h/mL as a bare number.

// query # AUC(0-t) lookup, item CC1(C)CCC(CN2CCN(c3ccc(C(=O)NS(=O)(=O)c4ccc(NCC5CCOCC5)c([N+](=O)[O-])c4)c(Oc4cnc5[nH]ccc5c4)c3)CC2)=C(c2ccc(Cl)cc2)C1 [venetoclax]
// result 12200
